Values from patent US20190010203A1

Target: CLR/RAMP1 receptor (UniProt Q16602 23-461; O60894 27-148, limits assumed)
Sequence (Q16602 23-461 limits assumed, chain 1 of 2): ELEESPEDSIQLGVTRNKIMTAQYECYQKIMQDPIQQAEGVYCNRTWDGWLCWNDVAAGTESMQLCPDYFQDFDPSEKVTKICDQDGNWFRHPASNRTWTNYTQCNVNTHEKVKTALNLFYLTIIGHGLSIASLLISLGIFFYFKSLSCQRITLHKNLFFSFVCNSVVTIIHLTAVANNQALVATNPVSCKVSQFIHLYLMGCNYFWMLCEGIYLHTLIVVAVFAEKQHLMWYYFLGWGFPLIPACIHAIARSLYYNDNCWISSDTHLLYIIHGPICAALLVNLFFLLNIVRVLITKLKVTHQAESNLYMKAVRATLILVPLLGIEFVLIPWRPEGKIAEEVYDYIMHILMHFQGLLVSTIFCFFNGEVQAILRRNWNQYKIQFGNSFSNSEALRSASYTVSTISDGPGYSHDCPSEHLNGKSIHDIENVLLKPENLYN
Sequence (O60894 27-148 limits assumed, chain 2 of 2): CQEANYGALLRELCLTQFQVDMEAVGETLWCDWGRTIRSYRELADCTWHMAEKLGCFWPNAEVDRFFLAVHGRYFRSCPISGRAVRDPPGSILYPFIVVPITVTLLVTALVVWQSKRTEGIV
Assay: cell-based or functional assay
*: point of attachment. Palmitoyl = CCCCCCCCCCCCCCCC(=O)*
EC50 (nM), CLR/RAMP1 cAMP assay less than 0.5 nM is rule met; EC50 (nM), CLR/RAMP1 cAMP assay greater than or equal to 0.5 nM is rule not met.

These recorded examples may help you get a feel for the data.
Palmitoyl-KTKKTLRTGCRFGTCTVQKLAHQIYQFTDKDKDNVAPVDPSSPHSY-NH2 (not fully specified; printed as Pal-KTKKTLRTGCRFGTCTVQKLAHQIYQFTDKDKDNVAPVDPSSPHSY-NH2; ends and bridges not checked) [SEQ ID NO: 40] ... rule not met
Palmitoyl-KGCRFGTCTVQKLAHQIYQFTDKDAPVDPSSPHSY-NH2 (ends and bridges not checked) [SEQ ID NO: 110] ... rule not met

Lookup: API: query returns whether the binder falls strictly under 0.5 nM in EC50 (nM), CLR/RAMP1 cAMP assay. Query: Ac-TK(Palmitoyl)KTLRTGCRFGTCTVQKLAHQIYQFTDKDKDNSAPVDPSSPHSY-NH2 (ends and bridges not checked) [SEQ ID NO: 39]
Found: rule met

Lookup: API: query returns whether the binder falls strictly under 0.5 nM in EC50 (nM), CLR/RAMP1 cAMP assay. Query: Palmitoyl-KGCRFGTCTVQKLAHQIYQFTDKDKDNVAPVDPSSPHSY-NH2 (ends and bridges not checked) [SEQ ID NO: 34]
Found: rule met

Lookup: API: query returns whether the binder falls strictly under 0.5 nM in EC50 (nM), CLR/RAMP1 cAMP assay. Query: Ac-VGCRFGTCTVQKLAHQIYQFTDKDKDNSAPVDPSSPHSY-NH2 (ends and bridges not checked) [SEQ ID NO: 56]
Found: rule not met

Lookup: API: query returns whether the binder falls strictly under 0.5 nM in EC50 (nM), CLR/RAMP1 cAMP assay. Query: Palmitoyl-KGCRFGTCTVQKLAHQIYQFTPAGRQDSAPVDPSSPHSY-NH2 (ends and bridges not checked) [SEQ ID NO: 31]
Found: rule not met

Lookup: API: query returns whether the binder falls strictly under 0.5 nM in EC50 (nM), CLR/RAMP1 cAMP assay. Query: Palmitoyl-KGCRFGTCTVQKLAHQIYQFTDKDKQDSAPVDPSSPHSY-NH2 (ends and bridges not checked) [SEQ ID NO: 35]
Found: rule not met
